# RUN_DESCRIPTION: Cellular Toxicity (caspase-3) H-4-II-E (AID 663);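 further: cells exposed to compound for 16 hr before readout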
# PROTOCOL_CONDITIONS: H-4-II-E rat hepatoma, scaled: DMSO 0%, 100 µM tamoxifen 100%; at 92.2 µM (top of the series)
Results filed as inconclusive are left out. Calls of active or inactive are those of the source. The call rests on the fitted dose curve; in most records, active means well fitted activation curve with a large enough effect; inconclusive means small, poorly fitted or top-dose-only effect; inactive means flat fitted curve, though single readings scatter.
OBSERVATION_TYPE: caspase-3 activation

Which caspase-3 activation value belongs to `Cc1cc(C)cc(O)c1` ?
-0.413% (inactive)

Which caspase-3 activation value belongs to `Nc1nc2ccccc2[nH]1` ?
-0.868% (inactive)

Which caspase-3 activation value belongs to `O=Cc1c(Cl)cccc1Cl` ?
5.93% (inactive)

Which caspase-3 activation value belongs to `COCCOC(=O)c1ccccc1C(=O)OCCOC` ?
0.176% (inactive)

Which caspase-3 activation value belongs to `Cc1ccccc1C(N)=O` ?
1.38% (inactive)

Which caspase-3 activation value belongs to `CC(=O)c1cc(C)oc1C` ?
-0.25% (inactive)

Which caspase-3 activation value belongs to `C=C(C)C(=O)OCCCCCC` ?
0.664% (inactive)

Which caspase-3 activation value belongs to CCCC(C)CO (centres undefined) ?
1.09% (inactive)

Which caspase-3 activation value belongs to `CCOc1ccc(NC(C)=O)cc1N` ?
0.579% (inactive)

Which caspase-3 activation value belongs to `Clc1ccccn1` ?
-0.264% (inactive)

Which caspase-3 activation value belongs to `NC(=O)NC(N)=O` ?
-0.188% (inactive)

Which caspase-3 activation value belongs to `Cc1ccc(C)c(O)c1` ?
0.256% (inactive)

Which caspase-3 activation value belongs to C1CCC2OC2C1 (centres undefined) ?
-0.699% (inactive)

Which caspase-3 activation value belongs to CC(C)=C1CCC(C)CC1=O (centres undefined) ?
-0.0437% (inactive)

Which caspase-3 activation value belongs to `O=C(O)c1ccccc1[N+](=O)[O-]` ?
1.85% (inactive)

Which caspase-3 activation value belongs to `CCCCCCCCC` ?
0.863% (inactive)

Which caspase-3 activation value belongs to `O=[N+]([O-])c1c(Cl)cc(Cl)cc1Cl` ?
0.356% (inactive)

Which caspase-3 activation value belongs to `C=C(C)OC(C)=O` ?
2.67% (inactive)

Which caspase-3 activation value belongs to `O=[N+]([O-])c1ccc(CCO)cc1` ?
0.267% (inactive)

Which caspase-3 activation value belongs to `CC/C=C/C#N` ?
0.211% (inactive)

Which caspase-3 activation value belongs to `NC=O` ?
0.414% (inactive)

Which caspase-3 activation value belongs to `COC(=O)c1ccccc1` ?
3.83% (inactive)

Which caspase-3 activation value belongs to `c1ccc2c(c1)Oc1ccccc1S2` ?
-0.0621% (inactive)

Which caspase-3 activation value belongs to `[O-]/[N+](=N\O)c1ccccc1` ?
-1.1% (inactive)

Which caspase-3 activation value belongs to `O=C(Cl)c1ccccc1[N+](=O)[O-]` ?
1.33% (inactive)

Which caspase-3 activation value belongs to `FB(F)F` ?
0.388% (inactive)

Which caspase-3 activation value belongs to `Cc1ccc(C)c(N)c1` ?
3.4% (inactive)

Which caspase-3 activation value belongs to `CC(C)(O)C(=O)O` ?
-0.178% (inactive)

Which caspase-3 activation value belongs to `CC/C=C1/OC(=O)c2ccccc21` ?
0.49% (inactive)
